Target: hNAMPT protein (Homo sapiens (Human))
Sequence (P43490 whole entry): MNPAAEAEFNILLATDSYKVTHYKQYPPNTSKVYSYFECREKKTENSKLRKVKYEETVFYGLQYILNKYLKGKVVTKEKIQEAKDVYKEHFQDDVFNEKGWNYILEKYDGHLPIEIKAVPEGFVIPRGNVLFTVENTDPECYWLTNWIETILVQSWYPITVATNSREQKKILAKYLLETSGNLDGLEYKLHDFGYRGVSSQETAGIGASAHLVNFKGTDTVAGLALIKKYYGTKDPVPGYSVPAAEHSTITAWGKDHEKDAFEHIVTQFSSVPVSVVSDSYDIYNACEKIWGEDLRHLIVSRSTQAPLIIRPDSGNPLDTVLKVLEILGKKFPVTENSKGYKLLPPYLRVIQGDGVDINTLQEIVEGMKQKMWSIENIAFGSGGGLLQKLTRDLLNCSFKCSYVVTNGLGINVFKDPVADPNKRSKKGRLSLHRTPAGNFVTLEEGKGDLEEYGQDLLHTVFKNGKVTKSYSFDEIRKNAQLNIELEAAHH
Assay: NAMPT enzyme assay (TR-FRET/HTRF, BodiPY ligand, anti 6His-Tb)
Type: binding
Settings: compound concentration 1 μM; read-out: Percent Inhibition

>  <CHEMICAL SMILES>
O=C(NCCCc1cccnc1)c1ccc2nc(-c3ccc(F)cc3)c(-c3ccc(F)cc3)nc2c1

>  <STUDY TARGET>
hNAMPT protein (Homo sapiens (Human))

>  <inhibition at 1 µM (%)>
78

$$$$
>  <CHEMICAL SMILES>
O=C(NCCCn1ccnc1)c1ccc2nc(N3CCC(N4CCNCC4)CC3)c(-c3ccccc3)nc2c1

>  <STUDY TARGET>
hNAMPT protein (Homo sapiens (Human))

>  <inhibition at 1 µM (%)>
100

$$$$
>  <CHEMICAL SMILES>
O=C(NCCOc1cccnc1)c1ccc2nc(Cl)c(-c3ccc(F)cc3)nc2c1

>  <STUDY TARGET>
hNAMPT protein (Homo sapiens (Human))

>  <inhibition at 1 µM (%)>
62

$$$$
>  <CHEMICAL SMILES>
O=C(NCCc1ccncc1)c1ccc2nc(-c3ccc(F)cc3)c(-c3ccc(F)cc3)nc2c1

>  <STUDY TARGET>
hNAMPT protein (Homo sapiens (Human))

>  <inhibition at 1 µM (%)>
95

$$$$

---

We begin with a simple list: items and their reported IC50.
Target: UniProt:P43490
Assay: NAMPT enzyme assay (TR-FRET/HTRF, BodiPY ligand, anti 6His-Tb)
Format: binding
Conditions: NAMPT IC50 range class; read-out: IC50
VALUE TYPE: IC50

>  <COMPOUND>
NS(=O)(=O)c1ccc(-c2nc3ccc(C(=O)NCCCn4ccnc4)cc3nc2-c2ccccc2)cc1

>  <OBS VALUE>
100 to 500 nM

$$$$
>  <COMPOUND>
CCCOc1nc2ccc(C(=O)NCCCc3nnc[nH]3)cc2nc1-c1ccc(F)cc1

>  <OBS VALUE>
100 to 500 nM

$$$$
>  <COMPOUND>
O=C(NCCCn1ccnc1)c1ccc2nc(-c3ccsc3)c(-c3ccccc3)nc2c1

>  <OBS VALUE>
500 to 1000 nM

$$$$
>  <COMPOUND>
O=C(NCCCn1ccnc1)c1ccc2nc(N3CCCC(O)C3)c(-c3ccccc3)nc2c1 (centres unmarked)

>  <OBS VALUE>
100 to 500 nM

$$$$
>  <COMPOUND>
O=C(NCCCc1ncc[nH]1)c1ccc2nc(OCc3c[nH]cn3)c(-c3ccc(F)cc3)nc2c1

>  <OBS VALUE>
500 to 1000 nM

$$$$
>  <COMPOUND>
COC1CN(c2nc3ccc(C(=O)NCCCc4ncc[nH]4)cc3nc2-c2ccc(F)cc2)C1

>  <OBS VALUE>
< 100 nM

$$$$
>  <COMPOUND>
Cn1cc(-c2nc3cc(C(=O)NCCCn4ccnc4)ccc3nc2-c2ccccc2)cn1

>  <OBS VALUE>
2000 to 10000 nM

$$$$
>  <COMPOUND>
O=C(c1ccc2nc(-c3ccc(F)cc3)c(-c3ccc(F)cc3)nc2c1)N1CCn2ccnc2C1

>  <OBS VALUE>
2000 to 10000 nM

$$$$

---

Biological target: hNAMPT protein (Homo sapiens (Human))
Assay: NAMPT enzyme assay (TR-FRET/HTRF, BodiPY ligand, anti 6His-Tb)
Type: binding
Conditions: compound concentration 1 μM; read-out: Percent Inhibition
Please enter TRUE where inhibition at 1 µM is greater than or equal to 80%, and FALSE where it is lower.

>  <CHEMICAL SMILES>
O=C(NCc1ccc2nccn2c1)c1ccc2nc(-c3ccc(F)cc3)c(-c3ccc(F)cc3)nc2c1

>  <STUDY TARGET>
hNAMPT protein (Homo sapiens (Human))

>  <CLASS>
FALSE

$$$$
>  <CHEMICAL SMILES>
O=C(NCCc1c[nH]cn1)c1ccc2nc(-c3ccc(F)cc3)c(-c3ccc(F)cc3)nc2c1

>  <STUDY TARGET>
hNAMPT protein (Homo sapiens (Human))

>  <CLASS>
FALSE

$$$$
>  <CHEMICAL SMILES>
O=C(NCc1ccc2[nH]ncc2c1)c1ccc2nc(N3CCOCC3)c(-c3ccc(F)cc3)nc2c1

>  <STUDY TARGET>
hNAMPT protein (Homo sapiens (Human))

>  <CLASS>
TRUE

$$$$
>  <CHEMICAL SMILES>
O=C(NCCCc1nnc[nH]1)c1ccc2nc(-c3ccc(F)cc3)c(-c3ccc(F)cc3)nc2c1

>  <STUDY TARGET>
hNAMPT protein (Homo sapiens (Human))

>  <CLASS>
FALSE

$$$$
>  <CHEMICAL SMILES>
COc1ccc(-c2nc3cc(C(=O)NCCCn4ccnc4)ccc3nc2-c2ccccc2)cc1

>  <STUDY TARGET>
hNAMPT protein (Homo sapiens (Human))

>  <CLASS>
FALSE

$$$$
>  <CHEMICAL SMILES>
CN1CCC(Oc2nc3ccc(C(=O)NCCCc4ncc[nH]4)cc3nc2-c2ccc(F)cc2)CC1

>  <STUDY TARGET>
hNAMPT protein (Homo sapiens (Human))

>  <CLASS>
TRUE

$$$$
>  <CHEMICAL SMILES>
COc1cccc(-c2nc3cc(C(=O)NCCCc4cccnc4)ccc3nc2N2CCCCC2)c1

>  <STUDY TARGET>
hNAMPT protein (Homo sapiens (Human))

>  <CLASS>
TRUE

$$$$
>  <CHEMICAL SMILES>
Cc1ccc(Cl)c(-c2nc3cc(C(=O)NCCCc4ncc[nH]4)ccc3nc2-c2ccc(F)cc2)c1

>  <STUDY TARGET>
hNAMPT protein (Homo sapiens (Human))

>  <CLASS>
TRUE

$$$$
>  <CHEMICAL SMILES>
C[C@@H]1CN(c2nc3ccc(C(=O)NCCCc4ncc[nH]4)cc3nc2-c2ccc(F)cc2)C[C@H](C)O1

>  <STUDY TARGET>
hNAMPT protein (Homo sapiens (Human))

>  <CLASS>
TRUE

$$$$
>  <CHEMICAL SMILES>
CCc1ccc(-c2nc3cc(C(=O)NCCCc4ncc[nH]4)ccc3nc2-c2ccc(F)cc2)cc1

>  <STUDY TARGET>
hNAMPT protein (Homo sapiens (Human))

>  <CLASS>
FALSE

$$$$
>  <CHEMICAL SMILES>
O=C(NCCCn1ccnc1)c1ccc2nc(C3=CCOCC3)c(-c3ccccc3)nc2c1

>  <STUDY TARGET>
hNAMPT protein (Homo sapiens (Human))

>  <CLASS>
FALSE

$$$$
>  <CHEMICAL SMILES>
O=C(NCc1cn2cccnc2n1)c1ccc2nc(N3CCC(O)CC3)c(-c3ccc(F)cc3)nc2c1

>  <STUDY TARGET>
hNAMPT protein (Homo sapiens (Human))

>  <CLASS>
TRUE

$$$$
>  <CHEMICAL SMILES>
O=C(NCCCn1ccnc1)c1ccc2nc(-c3ccccc3)c(N3CCC4(COC4)C3)nc2c1

>  <STUDY TARGET>
hNAMPT protein (Homo sapiens (Human))

>  <CLASS>
FALSE

$$$$
